Target Or System: T1, Boi2, P39969
T1 sequence (P39969 32-116, looked up): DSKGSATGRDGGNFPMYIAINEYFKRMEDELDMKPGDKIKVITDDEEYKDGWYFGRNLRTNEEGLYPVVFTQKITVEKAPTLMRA
Assay Notes: SPOT array
Setup Conditions: median of control spots 1161
With a cut-off of 1, any SPOT intensity strictly below it is called 1; any SPOT intensity meeting it or above is called -1.

| Binder | Class Label |
| --- | --- |
| LKRITSPPLPPRADS | 1 |
| RSVKRPRRAPRPVVS | -1 |
| DKKTKPTPPPKPSHL | -1 |
| LEFRAILFIPKRAPF | -1 |
| NPNRRAPRRPLSTQH | 1 |
| RRASLFPRDPKRLRP | -1 |
| SSAAPPPPPRRATPE | 1 |
| GLRRARYKFPGQQKI | 1 |
| HKVLRPFLLRRLKKD | 1 |
| GATNNAPTLPKRKNP | -1 |
| ILARAILTIPRVLDK | 1 |
| QTMRQAPKRPDADVA | 1 |

The measurements presented in this section are drawn from paper PMC2756588.
